Test system: 648629-189-R-J1-PDC spheroids with HUVEC/MSC, viability
ASSAY_EXPLANATION: Anticancer human tumor 648629-189-R-J1-PDC patient-derived bladder carcinoma cell line growth inhibition [PI3K]
REPORTED_CONDITIONS: curve of first compound; second compound 10 µM
READOUT_LABEL: IC50

Prompt line: Lab note: need IC50 for CC(Cn1ccc(-c2ccc(C#N)c(Cl)c2)n1)NC(=O)c1cc(C(C)O)[nH]n1 (stereo not drawn) + Cc1nc(NC(=O)N2CCCC2C(N)=O)sc1-c1ccnc(C(C)(C)C(F)(F)F)c1 on 648629-189-R-J1-PDC spheroids with HUVEC/MSC, viability, anyone have it?
Response line: < 31.6 nM

Prompt line: Would you kindly repeat that for CCCS(=O)(=O)Nc1ccc(F)c(C(=O)c2c[nH]c3ncc(-c4ccc(Cl)cc4)cc23)c1F + Cc1nc(NC(=O)N2CCCC2C(N)=O)sc1-c1ccnc(C(C)(C)C(F)(F)F)c1 ?
Response line: < 31.6 nM

Prompt line: One more molecule: CC1(C)CCC(CN2CCN(c3ccc(C(=O)NS(=O)(=O)c4ccc(NCC5CCOCC5)c([N+](=O)[O-])c4)c(Oc4cnc5[nH]ccc5c4)c3)CC2)=C(c2ccc(Cl)cc2)C1 + Cc1nc(NC(=O)N2CCCC2C(N)=O)sc1-c1ccnc(C(C)(C)C(F)(F)F)c1
Response line: < 31.6 nM

----------
Below: a set of entries, each annotated with reported viability, T/C.
Test system: 648629-189-R-J1-PDC spheroids with HUVEC/MSC, viability
ASSAY_EXPLANATION: Anticancer human tumor 648629-189-R-J1-PDC cell line growth inhibition [PI3K];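 further: spheroids exposed to agents for seven days before reading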;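 on viability, T/C: percent of vehicle control luminescence where 100% = DMSO treated spheroids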
REPORTED_CONDITIONS: second compound 0.0316 µM; first compound 0.1 µM; stronger effect = lower value

See these solved cases before continuing.
Cn1nccc1Nc1nccc(-c2ccn(C(CO)c3ccc(Cl)c(F)c3)c(=O)c2)n1 (stereo unspecified) + CC(Nc1ccc2c(c1)OCCn1cc(N3C(=O)OCC3C(F)F)nc1-2)C(N)=O: 101%
CC1(C)CCC(CN2CCN(c3ccc(C(=O)NS(=O)(=O)c4ccc(NCC5CCOCC5)c([N+](=O)[O-])c4)c(Oc4cnc5[nH]ccc5c4)c3)CC2)=C(c2ccc(Cl)cc2)C1 + CC(Nc1ncnc2nc[nH]c12)c1cc2cccc(Cl)c2c(=O)n1-c1ccccc1: 95.7%
CCN1CCN(Cc2ccc(Nc3ncc(F)c(-c4cc(F)c5nc(C)n(C(C)C)c5c4)n3)nc2)CC1 + CC(Nc1ncnc2nc[nH]c12)c1cc2cccc(Cl)c2c(=O)n1-c1ccccc1: 111%

Prompt line: Entry Cn1ncnc1[C@H]1c2n[nH]c(=O)c3cc(F)cc(c23)N[C@@H]1c1ccc(F)cc1 + CC(Nc1ncnc2nc[nH]c12)c1cc2cccc(Cl)c2c(=O)n1-c1ccccc1 has what viability, T/C?
Response line: 71%

Prompt line: Now the compound CC1(C)CCC(CN2CCN(c3ccc(C(=O)NS(=O)(=O)c4ccc(NCC5CCOCC5)c([N+](=O)[O-])c4)c(Oc4cnc5[nH]ccc5c4)c3)CC2)=C(c2ccc(Cl)cc2)C1 + COc1c(OCCCN2CCOCC2)ccc2c3n(c(=NC(=O)c4cnc(N)nc4)nc12)CCN3
Response line: 99.8%

Prompt line: Queued: CCCS(=O)(=O)Nc1ccc(F)c(C(=O)c2c[nH]c3ncc(-c4ccc(Cl)cc4)cc23)c1F + COc1c(OCCCN2CCOCC2)ccc2c3n(c(=NC(=O)c4cnc(N)nc4)nc12)CCN3
Response line: 85.3%

Prompt line: Param item: CC(=O)c1c(C)c2cnc(Nc3ccc(N4CCNCC4)cn3)nc2n(C2CCCC2)c1=O + CC(Nc1ccc2c(c1)OCCn1cc(N3C(=O)OCC3C(F)F)nc1-2)C(N)=O
Response line: 96.4%

Prompt line: Same lookup for CNC(=O)c1ccc(N2C(=S)N(c3ccc(C#N)c(C(F)(F)F)c3)C(=O)C2(C)C)cc1F + Cc1nc(NC(=O)N2CCCC2C(N)=O)sc1-c1ccnc(C(C)(C)C(F)(F)F)c1 , please.
Response line: 105%

----------
System: 648629-189-R-J1-PDC spheroids with HUVEC/MSC, viability
ASSAY_EXPLANATION: Anticancer human tumor 648629-189-R-J1-PDC cell line growth inhibition [PI3K];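 further: spheroids exposed to agents for seven days before reading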;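 on viability, T/C: percent of vehicle control luminescence where 100% = DMSO treated spheroids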
REPORTED_CONDITIONS: second compound 1 µM; first compound 10 µM; stronger effect = lower value
Recorded viability, T/C split into classes LOW: < 3%; MID: ≥ 3% and < 70%; HIGH: ≥ 70%

Study these solved cases before continuing.
CC1(C)CCC(Nc2ncc(C(F)(F)F)c(-c3c[nH]c4c(P(C)(C)=O)c(C#N)ccc34)n2)CN1 (stereo not given) + Cc1nc(NC(=O)N2CCCC2C(N)=O)sc1-c1ccnc(C(C)(C)C(F)(F)F)c1: LOW
CNC(=O)c1ccc(N2C(=S)N(c3ccc(C#N)c(C(F)(F)F)c3)C(=O)C2(C)C)cc1F + CC(Nc1ncnc2nc[nH]c12)c1cc2cccc(Cl)c2c(=O)n1-c1ccccc1: HIGH
CCCS(=O)(=O)Nc1ccc(F)c(C(=O)c2c[nH]c3ncc(-c4ccc(Cl)cc4)cc23)c1F + COc1c(OCCCN2CCOCC2)ccc2c3n(c(=NC(=O)c4cnc(N)nc4)nc12)CCN3: LOW
C[C@@H](NC(=O)c1ncnc(N)c1Cl)c1ncc(C(=O)Nc2cc(C(F)(F)F)c(Cl)cn2)s1 + Cc1nc(NC(=O)N2CCCC2C(N)=O)sc1-c1ccnc(C(C)(C)C(F)(F)F)c1: HIGH
CCCS(=O)(=O)Nc1ccc(F)c(C(=O)c2c[nH]c3ncc(-c4ccc(Cl)cc4)cc23)c1F + CC(Nc1ncnc2nc[nH]c12)c1cc2cccc(Cl)c2c(=O)n1-c1ccccc1: LOW

Prompt line: Class label required: C=CC(=O)N1CCN(c2nc(=O)n(-c3c(C)ccnc3C(C)C)c3nc(-c4c(O)cccc4F)c(F)cc23)C(C)C1 (stereo not given) + Cc1nc(NC(=O)N2CCCC2C(N)=O)sc1-c1ccnc(C(C)(C)C(F)(F)F)c1
Response line: HIGH

Prompt line: Repeat for the following molecule: CCCS(=O)(=O)Nc1ccc(F)c(C(=O)c2c[nH]c3ncc(-c4ccc(Cl)cc4)cc23)c1F + CC(Nc1ccc2c(c1)OCCn1cc(N3C(=O)OCC3C(F)F)nc1-2)C(N)=O
Response line: LOW

Prompt line: Item: C#Cc1c(F)ccc2cc(O)cc(-c3ncc4c(N5CC6CCC(C5)N6)nc(OCC56CCCN5CC(F)C6)nc4c3F)c12 (stereo not given) + CC(Nc1ncnc2nc[nH]c12)c1cc2cccc(Cl)c2c(=O)n1-c1ccccc1
Response line: HIGH

Prompt line: Continue with CC1(C)CCC(Nc2ncc(C(F)(F)F)c(-c3c[nH]c4c(P(C)(C)=O)c(C#N)ccc34)n2)CN1 (stereo not given) + CC(Nc1ccc2c(c1)OCCn1cc(N3C(=O)OCC3C(F)F)nc1-2)C(N)=O
Response line: LOW

Prompt line: Same lookup for C[C@@H](NC(=O)c1ncnc(N)c1Cl)c1ncc(C(=O)Nc2cc(C(F)(F)F)c(Cl)cn2)s1 + CC(Nc1ccc2c(c1)OCCn1cc(N3C(=O)OCC3C(F)F)nc1-2)C(N)=O , please.
Response line: MID

Prompt line: How about CNC(=O)c1ccc(N2C(=S)N(c3ccc(C#N)c(C(F)(F)F)c3)C(=O)C2(C)C)cc1F + COc1c(OCCCN2CCOCC2)ccc2c3n(c(=NC(=O)c4cnc(N)nc4)nc12)CCN3 ?
Response line: MID

Prompt line: Now consider CCCS(=O)(=O)Nc1ccc(F)c(C(=O)c2c[nH]c3ncc(-c4ccc(Cl)cc4)cc23)c1F + Cc1nc(NC(=O)N2CCCC2C(N)=O)sc1-c1ccnc(C(C)(C)C(F)(F)F)c1 and answer again.
Response line: LOW

Prompt line: Also check C#Cc1c(F)ccc2cc(O)cc(-c3ncc4c(N5CC6CCC(C5)N6)nc(OCC56CCCN5CC(F)C6)nc4c3F)c12 (stereo not given) + COc1c(OCCCN2CCOCC2)ccc2c3n(c(=NC(=O)c4cnc(N)nc4)nc12)CCN3
Response line: LOW

Prompt line: Same lookup for CC(Cn1ccc(-c2ccc(C#N)c(Cl)c2)n1)NC(=O)c1cc(C(C)O)[nH]n1 (stereo not given) + CC(Nc1ccc2c(c1)OCCn1cc(N3C(=O)OCC3C(F)F)nc1-2)C(N)=O , please.
Response line: MID

Prompt line: Now the same for C[C@@H](NC(=O)c1ncnc(N)c1Cl)c1ncc(C(=O)Nc2cc(C(F)(F)F)c(Cl)cn2)s1 + COc1c(OCCCN2CCOCC2)ccc2c3n(c(=NC(=O)c4cnc(N)nc4)nc12)CCN3
Response line: MID

Prompt line: // next record C=CC(=O)N1CCN(c2nc(=O)n(-c3c(C)ccnc3C(C)C)c3nc(-c4c(O)cccc4F)c(F)cc23)C(C)C1 (stereo not given) + COc1c(OCCCN2CCOCC2)ccc2c3n(c(=NC(=O)c4cnc(N)nc4)nc12)CCN3
Response line: MID

Prompt line: Proceed to CC(Cn1ccc(-c2ccc(C#N)c(Cl)c2)n1)NC(=O)c1cc(C(C)O)[nH]n1 (stereo not given) + CC(Nc1ncnc2nc[nH]c12)c1cc2cccc(Cl)c2c(=O)n1-c1ccccc1
Response line: HIGH

Prompt line: Another molecule to check: C=CC(=O)N1CCN(c2nc(=O)n(-c3c(C)ccnc3C(C)C)c3nc(-c4c(O)cccc4F)c(F)cc23)C(C)C1 (stereo not given) + CC(Nc1ncnc2nc[nH]c12)c1cc2cccc(Cl)c2c(=O)n1-c1ccccc1
Response line: HIGH

Prompt line: Again, but for CC1(C)CCC(CN2CCN(c3ccc(C(=O)NS(=O)(=O)c4ccc(NCC5CCOCC5)c([N+](=O)[O-])c4)c(Oc4cnc5[nH]ccc5c4)c3)CC2)=C(c2ccc(Cl)cc2)C1 + Cc1nc(NC(=O)N2CCCC2C(N)=O)sc1-c1ccnc(C(C)(C)C(F)(F)F)c1
Response line: MID
